Test system: KB-3-1
Assay: Cytotoxic Profiling of Annotated Libraries Using Quantitative High-Throughput Screening (AID 1296008); note: % is set by controls: 0 for no effect and ±100 for the full control effect; nearly all actives have a fitted effect of over 60% in size
Settings: Five cell lines viability, CellTiter-Glo ATP luminescence, 48-72 h; hits give low values
Procedure: Cell-based phenotypic screening is a commonly used approach to discover biological pathways, novel drug targets, chemical probes and high-quality hit-to-lead molecules. […] A pintool (Kalypsys) was used to transfer 23 nL of compound solution to the 1536-well assay plates. […] Plates were left at room temperature for 10 min before imaging the ATP-coupled luminescence using a ViewLux microplate imager (PerkinElmer, Waltham, MA).
Results filed as inconclusive are left out.
EXPERIMENTAL_READOUT: max response (%)
Quick note: give the figure in %, leave out the unit.

[Q] Using the record for COC(=O)[C@@H](O)[C@H]1[C@@]2(C)CC3(O)[C@@H](C(=O)[C@H]2O)[C@]24O[C@]25CC(=O)O[C@@H](c2ccoc2)[C@]5(C)CCC4[C@]13C (some centres undefined) , report its max response.
[A] 7.49

[Q] Using the record for C[C@@H]1O[C@@H](O[C@H]2[C@H](OC(=O)[C@]34CCC(C)(C)C[C@H]3C3=CCC5[C@@]6(C)C[C@H](O)[C@H](O[C@@H]7O[C@H](CO)[C@@H](O)[C@H](O)[C@H]7O)[C@@](C)(CO)C6[C@H](O)C[C@@]5(C)[C@]3(C)CC4)OC[C@H](O)[C@@H]2O)[C@H](O)[C@H](O)[C@H]1O[C@@H]1OC[C@@H](O)[C@H](O[C@@H]2OC[C@](O)(CO)[C@H]2O)[C@H]1O (some centres undefined) , report its max response.
[A] 3.08

[Q] Using the record for CC1(C)C2CC=C(COC3OC(COC4OCC(O)(CO)C4O)C(O)C(O)C3O)C1C2 (centres undefined) , report its max response.
[A] 4.52

[Q] Using the record for C/C=C/C=C/C(=O)N1CC[C@]23c4ccccc4N[C@H]4N(C)c5cccc6c5[C@@]42CCN([C@H]6C2OC2(C)C)[C@H]13 (some centres undefined) , report its max response.
[A] 9.01

[Q] Using the record for C/C1=C\CCC2=C[C@@H](OC2=O)c2c(C)coc2C1 , report its max response.
[A] 2.55

[Q] Using the record for COC(=O)c1ccc(OC(CO)C(O)c2ccc(O)c(OC)c2)c(OC)c1 (centres undefined) , report its max response.
[A] -5.47

[Q] Using the record for CC1OC(OC2C(CO)OC(OCC3OC(OC(=O)C45CCC(C)(C)CC4C4=CCC6C7(C)CCC(OC8OC(CO)C(O)C(OC9OC(CO)C(O)C(O)C9O)C8O)C(C)(C)C7CCC6(C)C4(C)CC5)C(O)C(O)C3O)C(O)C2O)C(O)C(O)C1OC1OC(CO)C(O)C(O)C1O (centres undefined) , report its max response.
[A] -0.0406

[Q] Using the record for CS(=O)(=O)NCC1CCC(Nc2nc3c(s2)CCSc2ccccc2-3)CC1 (centres undefined) , report its max response.
[A] -22.2

[Q] Using the record for CC1(CCOC2OC(CO)C(O)C(O)C2O)CCC23OC2(C1)C(O)CC1C(C)(C(=O)O)CCCC13C (centres undefined) , report its max response.
[A] 8.97

[Q] Using the record for C=C1C(OC(=O)/C(C)=C\C)[C@@]23CCC4[C@@](C)(CCC[C@@]4(C)C(=O)O)C2CC[C@H]1C3OC(C)=O (some centres undefined) , report its max response.
[A] 5.82

[Q] Using the record for CC1=C(C(=O)O)/C(=C\CO[C@@H]2O[C@H](CO)[C@@H](O)[C@H](O)[C@H]2O)C(OC(=O)/C=C/c2ccc(O)cc2)C1 (some centres undefined) , report its max response.
[A] 8.61

[Q] Using the record for CC1CCC2(C(=O)O)CCC3(C)C(=CCC4C5(C)CCC(O)C(C)(CO)C5CCC43C)C2C1(C)O (centres undefined) , report its max response.
[A] -0.678

[Q] Using the record for CN1CCc2nc(C(=O)N[C@@H]3C[C@@H](C(=O)N(C)C)CC[C@@H]3NC(=O)C(=O)Nc3ccc(Cl)cn3)sc2C1 , report its max response.
[A] -42

[Q] Using the record for C=C1C(=O)O[C@H](CCC)[C@H]1C(=O)O , report its max response.
[A] 2.02
